# Test system: rape
# Test name: Test B pre/postemergence rape
# Assay type: in vivo, Brassica napus
# Reported conditions: Postemergence, Rate 125 g/ha; scale 0 to 10, 0 is no effect, 10 is complete control
Record form. Attribute: Rape plant response rating. Fill in for each entry.
Give bare numbers.

Molecule: C=CCCCn1c(=O)on(C(=O)N(c2ccccc2)C(C)C)c1=O [Compound 575]
Rape plant response rating: 0
//
Molecule: CCC=CCn1c(=O)on(C(=O)N(c2ccc(F)cc2F)C(C)C)c1=O [Compound 523]
Rape plant response rating: 0
//
Molecule: CCN(CC)C(=O)Cn1c(=O)on(C(=O)N(c2ccc(F)cc2F)C(C)C)c1=O [Compound 512]
Rape plant response rating: 0
//
Molecule: CC(C)N(C(=O)n1oc(=O)n(CCC2OCCCO2)c1=O)c1ccc(Cl)cc1 [Compound 532]
Rape plant response rating: 0

Consider the additional molecule presented here.
Rape plant response rating reported for this molecule CC(C)N(C(=O)n1oc(=O)n(CCCF)c1=O)c1ccc(F)cc1F [Compound 500] : 3
